Reported values of MIC for individual entries
- Test system: Streptococcus pyogenes C203
- procedure-text: agar-dilution MIC
- Type: cell-based
endpoint: MIC (mg/L)

compound-string: CCCCCCCCC(=O)N[C@@H](Cc1ccccc1)C(=O)N[C@@H](Cc1c[nH]c2ccccc12)C(=O)N[C@H](CC(N)=O)C(=O)N[C@@H](CC(=O)O)C(=O)N[C@@H]1C(=O)NCC(=O)N[C@@H](CCCN)C(=O)N[C@@H](CC(=O)O)C(=O)N[C@H](C)C(=O)N[C@@H](CC(=O)O)C(=O)NCC(=O)N[C@H](CO)C(=O)N[C@@H]([C@H](C)CC(=O)O)C(=O)N[C@@H](CC(=O)c2ccccc2N)C(=O)O[C@@H]1C
reading: 0.5
--
compound-string: CCCCCCCCCCC(=O)N[C@@H](Cc1ccccc1)C(=O)NCCC[C@@H]1NC(=O)CNC(=O)[C@@H](NC(=O)[C@H](CC(=O)O)NC(=O)[C@@H](CC(N)=O)NC(=O)[C@@H](N)Cc2c[nH]c3ccccc23)[C@@H](C)OC(=O)[C@H](CC(=O)c2ccccc2N)NC(=O)[C@H]([C@H](C)CC(=O)O)NC(=O)[C@@H](CO)NC(=O)CNC(=O)[C@H](CC(=O)O)NC(=O)[C@@H](C)NC(=O)[C@H](CC(=O)O)NC1=O
reading: 1
--
compound-string: CCCCCCCCCCCCCCCC(=O)N[C@@H](Cc1c[nH]c2ccccc12)C(=O)N[C@@H](CC(N)=O)C(=O)N[C@@H](CC(=O)O)C(=O)N[C@@H]1C(=O)NCC(=O)N[C@@H](CCCN)C(=O)N[C@@H](CC(=O)O)C(=O)N[C@H](C)C(=O)N[C@@H](CC(=O)O)C(=O)NCC(=O)N[C@H](CO)C(=O)N[C@@H]([C@H](C)CC(=O)O)C(=O)N[C@@H](CC(=O)c2ccccc2N)C(=O)O[C@@H]1C
reading: 0.06

---

- Test system: Staphylococcus epidermidis EP12
- procedure-text: agar-dilution MIC
- Assay type: cell-based
Entries and their MIC

compound-string: CCCCCCCCCCCC(=O)NCCCCC(=O)N[C@@H](Cc1c[nH]c2ccccc12)C(=O)N[C@H](CC(N)=O)C(=O)N[C@@H](CC(=O)O)C(=O)N[C@@H]1C(=O)NCC(=O)N[C@@H](CCCN)C(=O)N[C@@H](CC(=O)O)C(=O)N[C@H](C)C(=O)N[C@@H](CC(=O)O)C(=O)NCC(=O)N[C@H](CO)C(=O)N[C@@H]([C@H](C)CC(=O)O)C(=O)N[C@@H](CC(=O)c2ccccc2N)C(=O)O[C@@H]1C
system: Staphylococcus epidermidis EP12
unit-of-measurement: µg/mL
MIC: 2
--
compound-string: CCCCCCCCCCCCC(=O)N[C@@H](Cc1ccccc1)C(=O)N[C@@H](Cc1c[nH]c2ccccc12)C(=O)N[C@H](CC(N)=O)C(=O)N[C@@H](CC(=O)O)C(=O)N[C@@H]1C(=O)NCC(=O)N[C@@H](CCCN)C(=O)N[C@@H](CC(=O)O)C(=O)N[C@H](C)C(=O)N[C@@H](CC(=O)O)C(=O)NCC(=O)N[C@H](CO)C(=O)N[C@@H]([C@H](C)CC(=O)O)C(=O)N[C@@H](CC(=O)c2ccccc2N)C(=O)O[C@@H]1C
system: Staphylococcus epidermidis EP12
unit-of-measurement: µg/mL
MIC: 2
--
compound-string: CCCCCCCCCCCC(=O)Nc1cccc(C(=O)N[C@@H](Cc2c[nH]c3ccccc23)C(=O)N[C@H](CC(N)=O)C(=O)N[C@@H](CC(=O)O)C(=O)N[C@@H]2C(=O)NCC(=O)N[C@@H](CCCN)C(=O)N[C@@H](CC(=O)O)C(=O)N[C@H](C)C(=O)N[C@@H](CC(=O)O)C(=O)NCC(=O)N[C@H](CO)C(=O)N[C@@H]([C@H](C)CC(=O)O)C(=O)N[C@@H](CC(=O)c3ccccc3N)C(=O)O[C@@H]2C)c1
system: Staphylococcus epidermidis EP12
unit-of-measurement: µg/mL
MIC: 1
--
compound-string: CCCCCCCCCCCC(=O)NCCCCCCCCCCC(=O)N[C@@H](Cc1c[nH]c2ccccc12)C(=O)N[C@H](CC(N)=O)C(=O)N[C@@H](CC(=O)O)C(=O)N[C@@H]1C(=O)NCC(=O)N[C@@H](CCCN)C(=O)N[C@@H](CC(=O)O)C(=O)N[C@H](C)C(=O)N[C@@H](CC(=O)O)C(=O)NCC(=O)N[C@H](CO)C(=O)N[C@@H]([C@H](C)CC(=O)O)C(=O)N[C@@H](CC(=O)c2ccccc2N)C(=O)O[C@@H]1C
system: Staphylococcus epidermidis EP12
unit-of-measurement: µg/mL
MIC: 8
